B1: HDV Ribozyme (parent)
chain: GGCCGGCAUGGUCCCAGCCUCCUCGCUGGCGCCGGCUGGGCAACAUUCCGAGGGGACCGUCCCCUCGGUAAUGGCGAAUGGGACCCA

# Variants of: B1
# TEST_NAME: self-cleavage, relative activity (ratio to wild type); higher = more cleavage; co-transcriptional
I'd appreciate it if you could supply self-cleavage values for the items below.
// return a plain number; no unit text

So, G54C G73C ? Its self-cleavage was 0.502

# variant G29U C41G ; its self-cleavage = 0.0302

// self-cleavage value for C7A G29A : 0.0804

For reference, reported self-cleavage for G40U C62G stands at 0.467

Summary for this variant, G59A C63G : self-cleavage is 0.805

Reported self-cleavage for C26G G59U was 0.831

For C49A G74U the variant record lists self-cleavage as 0.415

Given item G34C C63U , the value recorded as its self-cleavage is 0.287

Value of self-cleavage reported for the variant G11A U65C is 0.277

# self-cleavage of C48G C62A = 0.35

Reported self-cleavage for G55C C61A was 1.06
